tested-target: Matrix protein VP40 (Lake Victoria marburgvirus (strain Ravn-87) (MARV) (Marburg virus (strainKenya/Ravn/1987)))
measurement-protocol: Inhibition of Marburg virus VP40 PPxY L-domain motif expressed in HEK293T cells assessed as reduction in VLP budding at 0.03 uM relative to control
Assay type: cell-based
applied-conditions: HEK-293T
Calls of active or inactive are those of the source. The rule behind the calls is not given here.
metric-name: inhibition

Some compounds with known inhibition results, for comparison:
**Query** Could you share which inhibition value was measured for `COc1cccc(NC(=O)NC(=O)CSc2nc3ccccc3nc2C)c1` ?
**Result** inactive

**Query** Could you share which inhibition value was measured for `Cc1ccc(NC(=O)NC(=O)CSc2nc3ccccc3nc2C)cc1` ?
**Result** 93%

**Query** Could you share which inhibition value was measured for `Cc1nc2ccccc2nc1SCC(=O)NC(=O)Nc1cccc(F)c1C` ?
**Result** 86%

**Query** Could you share which inhibition value was measured for `Cc1nc2ccccc2nc1SCC(=O)NC(=O)Nc1ccccc1Cl` ?
**Result** 93%

**Query** Could you share which inhibition value was measured for `Cc1cccc(C)c1NC(=O)NC(=O)CSc1nc2ccccc2nc1C` ?
**Result** inactive

Please look at the following compound next.
**Query** Could you share which inhibition value was measured for `Cc1cc(C)cc(NC(=O)NC(=O)CSc2nc3ccccc3nc2C)c1` ?
**Result** 44%

----------
Kindly state viability at 24 h, 0.1 µM for each of the entries shown.
measurement-protocol: Cytotoxicity against African green monkey Vero E6 cells assessed as cell viability at 0.1 uM after 24 hrs by MTT assay relative to control
Assay type: cell-based
applied-conditions: chlorocebus sabaeus, read-out: Activity
# value in %; strip the unit string

**Query** Could you share which viability at 24 h, 0.1 µM value was measured for `Cc1nc2ccccc2nc1SCC(=O)NC(=O)Nc1cccc(F)c1C` ?
**Result** 92.6

**Query** Could you share which viability at 24 h, 0.1 µM value was measured for `Cc1ccccc1NC(=O)NC(=O)CSc1nc2ccccc2nc1C` ?
**Result** 92.3

**Query** Could you share which viability at 24 h, 0.1 µM value was measured for `Cc1ccc(NC(=O)NC(=O)CSc2nc3ccccc3nc2C)cc1` ?
**Result** 93.9

**Query** Could you share which viability at 24 h, 0.1 µM value was measured for `Cc1nc2ccccc2nc1SCC(=O)NC(=O)Nc1ccccc1Cl` ?
**Result** 101

----------
Kindly state viability at 24 h, 1 µM for each of the entries shown.
measurement-protocol: Cytotoxicity against human HEK293T cells assessed as cell viability at 1 uM after 24 hrs by MTT assay relative to control
Assay type: cell-based, HEK-293T
applied-conditions: read-out: Activity
Include the unit right after the number.

**Query** Could you share which viability at 24 h, 1 µM value was measured for `Cc1ccc(NC(=O)NC(=O)CSc2nc3ccccc3nc2C)cc1` ?
**Result** 61.8%

**Query** Could you share which viability at 24 h, 1 µM value was measured for `Cc1nc2ccccc2nc1SCC(=O)NC(=O)Nc1ccccc1Cl` ?
**Result** 63.9%

**Query** Could you share which viability at 24 h, 1 µM value was measured for `Cc1ccccc1NC(=O)NC(=O)CSc1nc2ccccc2nc1C` ?
**Result** 62.8%

**Query** Could you share which viability at 24 h, 1 µM value was measured for `Cc1nc2ccccc2nc1SCC(=O)NC(=O)Nc1cccc(F)c1C` ?
**Result** 60.1%

----------
tested-target: Matrix protein VP40 (Lake Victoria marburgvirus (strain Ravn-87) (MARV) (Marburg virus (strainKenya/Ravn/1987))) (UniProt Q1PDC8)
Sequence (Q1PDC8 whole entry): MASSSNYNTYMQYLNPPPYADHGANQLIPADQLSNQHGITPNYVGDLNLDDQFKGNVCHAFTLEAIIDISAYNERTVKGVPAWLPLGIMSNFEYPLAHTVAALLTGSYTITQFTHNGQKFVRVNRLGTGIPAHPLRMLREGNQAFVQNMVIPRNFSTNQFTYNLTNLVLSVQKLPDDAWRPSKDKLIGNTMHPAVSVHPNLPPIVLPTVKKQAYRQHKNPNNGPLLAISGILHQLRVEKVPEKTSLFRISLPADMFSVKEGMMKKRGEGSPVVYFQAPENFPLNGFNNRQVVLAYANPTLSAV
measurement-protocol: Inhibition of Marburg virus VP40 PPxY L-domain motif expressed in HEK293T cells assessed as reduction in VLP budding at 0.1 uM relative to control
Format: cell-based
applied-conditions: HEK-293T
metric-name: inhibition

**Query** Could you share which inhibition value was measured for `Cc1ccccc1NC(=O)NC(=O)CSc1nc2ccccc2nc1C` ?
**Result** 98%

**Query** Could you share which inhibition value was measured for `Cc1ccc(NC(=O)NC(=O)COc2nc3ccccc3nc2C)cc1` ?
**Result** 70%

**Query** Could you share which inhibition value was measured for `Cc1ccc(F)cc1NC(=O)NC(=O)CSc1nc2ccccc2nc1C` ?
**Result** 89%

----------
Kindly state viability at 24 h, 0.01 µM for each of the entries shown.
measurement-protocol: Cytotoxicity against human HEK293T cells assessed as cell viability at 0.01 uM after 24 hrs by MTT assay relative to control
Type: cell-based, HEK-293T
applied-conditions: read-out: Activity
# value in %; strip the unit string

**Query** Could you share which viability at 24 h, 0.01 µM value was measured for `Cc1nc2ccccc2nc1SCC(=O)NC(=O)Nc1cccc(F)c1C` ?
**Result** 95.1

**Query** Could you share which viability at 24 h, 0.01 µM value was measured for `Cc1ccccc1NC(=O)NC(=O)CSc1nc2ccccc2nc1C` ?
**Result** 98.6

**Query** Could you share which viability at 24 h, 0.01 µM value was measured for `Cc1nc2ccccc2nc1SCC(=O)NC(=O)Nc1ccccc1Cl` ?
**Result** 96.9

**Query** Could you share which viability at 24 h, 0.01 µM value was measured for `Cc1ccc(NC(=O)NC(=O)CSc2nc3ccccc3nc2C)cc1` ?
**Result** 98.3

----------
measurement-protocol: Half life in mouse liver microsomes
Format: ADME
Binarize t1/2 at 2 min; below is Yes, at or above is No.

**Query** For `Cc1ccc(C)c(NC(=O)NC(=O)CSc2nc3ccccc3nc2C)c1` , is the recorded t1/2 below the cut-off of 2 min?
**Result** Yes

**Query** For `CCc1nc2ccccc2nc1SCC(=O)NC(=O)Nc1cccc(F)c1C` , is the recorded t1/2 below the cut-off of 2 min?
**Result** No

**Query** For `O=C(CSc1nc2ccccc2nc1C(F)(F)F)NC(=O)Nc1ccccc1Cl` , is the recorded t1/2 below the cut-off of 2 min?
**Result** No

**Query** For `Cc1nc2ccccc2nc1SCC(=O)NC(=O)Nc1cccc(F)c1C` , is the recorded t1/2 below the cut-off of 2 min?
**Result** No

**Query** For `Cc1ccc(NC(=O)NC(=O)CSc2nc3ccccc3nc2C)cc1` , is the recorded t1/2 below the cut-off of 2 min?
**Result** Yes

----------
tested-target: Matrix protein VP40 (Lake Victoria marburgvirus (strain Ravn-87) (MARV) (Marburg virus (strainKenya/Ravn/1987))) (UniProt Q1PDC8)
measurement-protocol: Inhibition of Marburg virus VP40 PPxY L-domain motif expressed in HEK293T cells assessed as reduction in VLP budding at 0.1 uM relative to control
Assay type: cell-based
applied-conditions: HEK-293T
Active and inactive are the calls of the source. The calls are words filed in the database; no cut-off is given here.
metric-name: inhibition

Some molecules with known inhibition results, for comparison:
**Query** Could you share which inhibition value was measured for `Cc1c(F)cccc1NC(=O)NC(=O)CSc1nc2ccccc2nc1C(F)(F)F` ?
**Result** inactive

**Query** Could you share which inhibition value was measured for `CCc1nc2ccccc2nc1SCC(=O)NC(=O)Nc1cccc(F)c1C` ?
**Result** inactive

**Query** Could you share which inhibition value was measured for `Cc1nc2ccccc2nc1SCC(=O)NC(=O)Nc1ccc(Cl)cc1` ?
**Result** 82%

**Query** Could you share which inhibition value was measured for `Cc1ccncc1NC(=O)NC(=O)CSc1nc2ccccc2nc1C` ?
**Result** 85%

**Query** Could you share which inhibition value was measured for `Cc1ccc(NC(=O)NC(=O)CSc2nc3ccccc3nc2C)cc1` ?
**Result** 100%

**Query** Could you share which inhibition value was measured for `Cc1nc2ccccc2nc1SCC(=O)NC(=O)Nc1ccccc1F` ?
**Result** 98%

**Query** Could you share which inhibition value was measured for `Cc1nc2ccccc2nc1SCC(=O)NC(=O)NCc1ccccc1` ?
**Result** 29%

**Query** Could you share which inhibition value was measured for `Cc1nc2ccccc2nc1SCC(=O)NC(=O)NCc1cccs1` ?
**Result** inactive

**Query** Could you share which inhibition value was measured for `Cc1nc2ccccc2nc1SCC(=O)NC(=O)Nc1cccnc1` ?
**Result** 44%

**Query** Could you share which inhibition value was measured for `CCc1nc2ccccc2nc1SCC(=O)NC(=O)Nc1ccccc1Cl` ?
**Result** inactive

Please look at the following molecule next.
**Query** Could you share which inhibition value was measured for `COc1ccc(NC(=O)NC(=O)CSc2nc3ccccc3nc2C)cc1` ?
**Result** 99%

----------
measurement-protocol: Cytotoxicity against African green monkey Vero E6 cells assessed as cell viability at 1 uM after 24 hrs by MTT assay relative to control
Format: cell-based
applied-conditions: chlorocebus sabaeus, read-out: Activity
metric-name: viability at 24 h, 1 µM (%)
# value in %; strip the unit string

**Query** Could you share which viability at 24 h, 1 µM value was measured for `Cc1nc2ccccc2nc1SCC(=O)NC(=O)Nc1cccc(F)c1C` ?
**Result** 78.7

**Query** Could you share which viability at 24 h, 1 µM value was measured for `Cc1ccc(NC(=O)NC(=O)CSc2nc3ccccc3nc2C)cc1` ?
**Result** 78.5

**Query** Could you share which viability at 24 h, 1 µM value was measured for `Cc1ccccc1NC(=O)NC(=O)CSc1nc2ccccc2nc1C` ?
**Result** 71.2

**Query** Could you share which viability at 24 h, 1 µM value was measured for `Cc1nc2ccccc2nc1SCC(=O)NC(=O)Nc1ccccc1Cl` ?
**Result** 79.1
